- Assayed System: human cloned CHRM4 receptor (M4_CHO cells) (Homo sapiens)
- Construct: expressed in transfected cells; host or cells: CHO-K1
- Sequence (P08173 1-479): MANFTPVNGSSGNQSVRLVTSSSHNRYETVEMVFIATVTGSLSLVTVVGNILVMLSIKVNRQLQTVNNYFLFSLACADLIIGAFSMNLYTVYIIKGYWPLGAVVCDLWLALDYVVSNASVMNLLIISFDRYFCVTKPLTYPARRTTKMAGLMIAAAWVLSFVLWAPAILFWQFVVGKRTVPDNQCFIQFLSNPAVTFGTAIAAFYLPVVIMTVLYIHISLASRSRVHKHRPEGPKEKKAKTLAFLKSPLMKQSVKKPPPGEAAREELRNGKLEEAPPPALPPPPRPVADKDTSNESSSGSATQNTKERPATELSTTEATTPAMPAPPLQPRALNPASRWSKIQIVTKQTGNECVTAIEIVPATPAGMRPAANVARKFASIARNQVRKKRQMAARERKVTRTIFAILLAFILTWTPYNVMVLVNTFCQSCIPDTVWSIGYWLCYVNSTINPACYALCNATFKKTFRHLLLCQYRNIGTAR
- Assay Comment: CHRM4 Ca++ Flux Assay (agonist mode, FDSS 7000EX)
- Assay type: cell-based
- Condition Notes: geometric mean if tested more than once, read-out: M4 FDSS EC50
Measured Parameter: pEC50
Answers are plain numbers, as −log10 of the molar value.

Field: example entries. Status: answers known.
c1ccc(C2CCN([C@@H]3CCC4(C3)CN(c3nnco3)C4)CC2)c(OC2CC3(COC3)C2)c1 [Example 1A]	9.00
O=C(C1COC1)N1CC2(CC[C@@H](N3CCC(c4ccccc4OCCC4COC4)CC3)C2)C1 [Example 7KK]	8.70
COc1ccccc1C1CCN([C@@H]2CCC3(C2)CN(c2nccnc2C(F)(F)F)C3)CC1 [Example 5I]	7.08

For the 5 molecules below, give their pEC50 values.
1. COc1ccccc1C1CCN([C@@H]2CCC3(C2)CN(c2cnccn2)C3)CC1 [Example 5H]
2. COC(C)(C)COc1ccccc1C1CCN([C@@H]2CCC3(C2)CN(C(=O)C2COC2)C3)CC1 [Example 7HH]
3. c1ccc(C2CCN([C@@H]3CCC4(C3)CN(c3nncs3)C4)CC2)c(OCC2CCOCC2)c1 [Example 1I]
4. COc1ccc(Cl)cc1C1CCN([C@@H]2CCC3(C2)CN(c2ccnnc2)C3)CC1 [Example 5P]
5. O=C(N1CC2(CC[C@@H](N3CCC(c4cc(F)ccc4OC4CCOCC4)CC3)C2)C1)C1(F)CC1 (single isomer, unassigned) [Example 9C]

Out:
[9.00, 7.72, 8.40, 7.37, 9.00]

---

- Assayed System: human cloned CHRM4 receptor (M4_CHO cells) (Homo sapiens)
- Construct: expressed in transfected cells; host or cells: CHO-K1
- Assay Comment: CHRM4 Ca++ Flux Assay (agonist mode, FDSS 7000EX)
- Format: cell-based
- Condition Notes: Percent Activity, read-out: M4 FDSS PA
Kindly supply the reported Emax values for the records listed here.
Answers are plain numbers, in %.

Field: example entries. Status: answers known.
c1ccc(C2CCN([C@@H]3CCC4(C3)CN(c3nnco3)C4)CC2)c(OCC2CCOCC2)c1	70
c1ccc(C2CCN([C@@H]3CCC4(C3)CN(c3nncs3)C4)CC2)c(OC[C@H]2COCCO2)c1	70
FC1(COc2ccccc2C2CCN([C@@H]3CCC4(C3)CN(c3nncs3)C4)CC2)COC1	71
COc1ccccc1C1CCN([C@@H]2CCC3(C2)CN(c2ccns2)C3)CC1	70
Fc1ccc(OC2CC3(COC3)C2)c(C2CCN([C@@H]3CCC4(C3)CN(c3nnco3)C4)CC2)c1	69
FC1(COc2ccccc2C2CCN([C@@H]3CCC4(C3)CN(c3nnco3)C4)CC2)CCOCC1	72
COCCOc1ccccc1C1CCN([C@@H]2CCC3(C2)CN(c2nnco2)C3)CC1	72

Proceed to the following item.
In: // query Emax value for entry O=C(C1COC1)N1CC2(CC[C@@H](N3CCC(c4ccccc4OC4CCC4)CC3)C2)C1
Out: 70

---

- Assayed System: human cloned CHRM4 receptor (M4_CHO cells) (Homo sapiens)
- Construct: expressed in transfected cells; host or cells: CHO-K1
- Sequence (P08173 1-479): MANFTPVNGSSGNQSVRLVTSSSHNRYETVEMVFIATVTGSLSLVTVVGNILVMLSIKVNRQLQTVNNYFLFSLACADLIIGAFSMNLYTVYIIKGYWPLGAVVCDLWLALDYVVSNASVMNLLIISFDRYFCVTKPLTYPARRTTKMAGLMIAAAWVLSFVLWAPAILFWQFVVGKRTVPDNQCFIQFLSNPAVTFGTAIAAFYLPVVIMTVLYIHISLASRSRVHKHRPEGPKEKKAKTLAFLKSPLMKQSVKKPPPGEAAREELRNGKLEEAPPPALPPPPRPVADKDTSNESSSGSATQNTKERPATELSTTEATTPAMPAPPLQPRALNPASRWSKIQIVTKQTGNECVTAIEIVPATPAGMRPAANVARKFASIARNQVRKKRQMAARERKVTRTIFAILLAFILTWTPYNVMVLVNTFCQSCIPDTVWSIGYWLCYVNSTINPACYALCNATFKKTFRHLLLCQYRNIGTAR
- Assay Comment: CHRM4 Ca++ Flux Assay (agonist mode, FDSS 7000EX)
- Format: cell-based
- Condition Notes: geometric mean if tested more than once, read-out: M4 FDSS EC50
Measured Parameter: pEC50
Answers are plain numbers, as −log10 of the molar value.

Field: example entries. Status: answers known.
O=C(N1CC2(CC[C@@H](N3CCC(c4cc(F)ccc4OC4CC5(COC5)C4)CC3)C2)C1)C1(F)CC1 (single isomer, unassigned) [Example 11A]	7.42
O=C(C1COC1)N1CC2(CC[C@H](N3CCC(c4ccccc4OC(F)(F)F)CC3)C2)C1 (single isomer, unassigned)	6.56
O=C(N1CC2(CC[C@@H](N3CCC(c4ccccc4OCC4CC4)CC3)C2)C1)C1(F)CC1 (single isomer, unassigned) [Example 7T]	4.92
O=C(C1COC1)N1CC2(CC[C@@H](N3CCC(c4ccccc4OCC4(C(F)(F)F)CC4)CC3)C2)C1	8.05
O=C(N1CC2(CC[C@@H](N3CCC(c4ccccc4OC4CCOCC4)CC3)C2)C1)C1(F)CC1 (single isomer, unassigned) [Example 9E]	9.00

For the 5 molecules below, give their pEC50 values.
1. COCCOc1ccccc1C1CCN([C@@H]2CCC3(C2)CN(c2ncns2)C3)CC1
2. FC1(COc2ccccc2C2CCN([C@@H]3CCC4(C3)CN(c3nncs3)C4)CC2)CCOCC1
3. O=C(N1CC2(CC[C@@H](N3CCC(c4ccccc4OC(F)(F)F)CC3)C2)C1)C1(F)CC1 (single isomer, unassigned) [Example 9B]
4. CC(C)(O)CCOc1ccccc1C1CCN([C@@H]2CCC3(C2)CN(C(=O)C2(F)CC2)C3)CC1 (single isomer, unassigned)
5. O=C(C1COC1)N1CC2(CC[C@@H](N3CCC(c4ccccc4Oc4nccs4)CC3)C2)C1

Out:
[8.40, 8.22, 8.30, 8.70, 8.40]

---

- Assayed System: human cloned CHRM4 receptor (M4_CHO cells) (Homo sapiens)
- Construct: expressed in transfected cells; host or cells: CHO-K1
- Assay Comment: CHRM4 Ca++ Flux Assay (agonist mode, FDSS 7000EX)
- Assay type: cell-based
- Condition Notes: Percent Activity
Category | rule: reported M4 FDSS PA within range, see I = under 40%, II = from 40% up to 60%, III = 60% and over

CC(C)(O)CCOc1ccccc1C1CCN([C@@H]2CCC3(C2)CN(C(=O)C2(F)CC2)C3)CC1 (single isomer, unassigned)	I
Fc1ccc(OC2CCOCC2)c(C2CCN([C@@H]3CCC4(C3)CN(c3cncnc3)C4)CC2)c1 (single isomer, unassigned) [Example 10G]	II
Cc1nnc(COc2ccccc2C2CCN([C@@H]3CCC4(C3)CN(C(=O)C3(F)CC3)C4)CC2)o1 (single isomer, unassigned) [Example 7W]	III
O=C(N1CC2(CC[C@@H](N3CCC(c4ccccc4C4(O)CCOCC4)CC3)C2)C1)C1(F)CC1 (single isomer, unassigned) [Example 9G]	I
O=C(N1CC2(CC[C@@H](N3CCC(c4cc(F)ccc4C4CCOCC4)CC3)C2)C1)C1(F)CC1 (single isomer, unassigned) [Example 9K]	II

In: Class for O=C(N1CC2(CC[C@@H](N3CCC(c4cc(F)ccc4OC4CCOCC4)CC3)C2)C1)C1(F)CC1 (single isomer, unassigned) [Example 9D] ?
Out: II

In: Continue with O=C(N1CC2(CC[C@@H](N3CCC(c4ccccc4OC(F)(F)F)CC3)C2)C1)C1(F)CC1 (single isomer, unassigned) [Example 9B]
Out: III

---

- Assayed System: Cloned human M1 receptor (CHRM1) stably expressed in HEK293 cells (Homo sapiens, UniProt P11229)
- Construct: expressed in transfected cells; host or cells: HEK293
- Sequence (P11229 whole entry): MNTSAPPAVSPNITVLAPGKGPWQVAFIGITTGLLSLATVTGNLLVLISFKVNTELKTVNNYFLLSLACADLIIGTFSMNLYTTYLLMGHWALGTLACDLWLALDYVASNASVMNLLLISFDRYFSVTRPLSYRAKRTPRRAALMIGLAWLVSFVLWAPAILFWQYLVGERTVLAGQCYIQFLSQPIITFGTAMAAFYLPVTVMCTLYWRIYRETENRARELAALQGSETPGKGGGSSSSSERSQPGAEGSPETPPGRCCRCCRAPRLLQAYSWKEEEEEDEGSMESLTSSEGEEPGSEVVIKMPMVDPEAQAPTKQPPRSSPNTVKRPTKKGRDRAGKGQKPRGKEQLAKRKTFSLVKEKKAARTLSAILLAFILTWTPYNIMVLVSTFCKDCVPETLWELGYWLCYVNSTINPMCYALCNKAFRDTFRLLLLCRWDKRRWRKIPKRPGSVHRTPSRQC
- Assay Comment: CHRM1 Ca++ Flux Assay (agonist mode, FDSS 7000EX)
- Format: cell-based
- Condition Notes: HEK293, Percent Activity, read-out: M1 FDSS PA
Kindly supply the reported Emax values for the records listed here.
Numbers only, in %.

Field: example entries. Status: answers known.
COc1ccccc1C1CCN([C@@H]2CCC3(C2)CN(c2ncon2)C3)CC1	83
COc1ccccc1C1CCN([C@@H]2CCC3(C2)CN(c2cnc(C)nc2)C3)CC1	0
c1ccc(C2CCN([C@H]3CCC4(C3)CN(c3nnco3)C4)CC2)c(C2CCOCC2)c1 (single isomer, unassigned) [Example 10T]	21

Proceed to the following item.
In: // query Emax value for entry Fc1ccc(C2CCOC2)c(C2CCN([C@@H]3CCC4(C3)CN(c3nnco3)C4)CC2)c1 (mixture of isomers)
Out: 97

The values you see were collected from patent US12122761B2.
